- TARGET_OR_SYSTEM: D2-like receptor sites (Sus scrofa, UniProt A0ACM8QMZ9)
- Sequence (A0ACM8QMZ9 entry or part of it): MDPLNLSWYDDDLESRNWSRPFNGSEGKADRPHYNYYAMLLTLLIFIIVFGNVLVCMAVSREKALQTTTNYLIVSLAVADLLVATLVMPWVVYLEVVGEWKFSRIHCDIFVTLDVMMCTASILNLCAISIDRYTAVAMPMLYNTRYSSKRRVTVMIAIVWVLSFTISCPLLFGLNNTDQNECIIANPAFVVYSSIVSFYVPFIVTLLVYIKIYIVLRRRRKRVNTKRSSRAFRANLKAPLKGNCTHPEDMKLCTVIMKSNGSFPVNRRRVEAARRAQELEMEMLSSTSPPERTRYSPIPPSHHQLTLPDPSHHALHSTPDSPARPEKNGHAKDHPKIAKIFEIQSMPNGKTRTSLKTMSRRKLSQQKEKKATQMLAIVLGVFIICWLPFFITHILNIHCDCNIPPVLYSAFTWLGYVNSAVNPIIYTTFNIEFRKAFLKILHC
- EXPERIMENT_DESCRIPTION: Competitive binding, porcine striatal tissue, [3H]-spiperone (50 nM ketanserine present)
- EXPERIMENTAL_PARAMETERS: porcine striatal membranes; read-out: Kd for D2-like receptor sites (receptor isotherm)
READOUT_NAME: Kd (nM)
Express your answer in nM, writing the number without its unit.

// Kd lookup, key: O=C(CCCN1CCC2(CC1)C(=O)NCN2c1ccccc1)c1ccc(F)cc1 [[3H]-spiperone]
0.075

* * *

- EXPERIMENT_DESCRIPTION: pKa used to separate acids by titration
- Format: physicochemical
- Protocol: 4-(2,3-Dimethoxyphenyl)but-3-enoic acid (5). Recrystallized paraconic acid 4 (8.6 g, 0.032 mol) was placed into a one-neck round bottom flask and the solid was heated in a 180° C. oil bath for 6 h. Carbon dioxide could be observed bubbling out of the dark brown liquid. The reaction was cooled to room temperature and dissolved in CH2Cl2. The product and any unreacted starting material were extracted into 2 N NaOH (3×100 mL). […]
READOUT_NAME: pKa

// pKa lookup, key: COc1cccc(C2OC(=O)CC2C(=O)O)c1OC (centres unmarked)
~3.6

Also need COc1cccc(C=CCC(=O)O)c1OC , thanks.
~4.2
